- experimentalSystem: T1, Nbp2, Q12163
- T1 sequence (Q12163 103-180, looked up): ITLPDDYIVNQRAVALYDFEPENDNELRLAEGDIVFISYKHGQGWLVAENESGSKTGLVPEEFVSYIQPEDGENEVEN
- assaySummary: SPOT array
- measurementConditions: median of control spots 357
measurementKind: SPOT intensity

YHSRRHPLALGFKYV    0
KKAPPPVVKPKPRNF    0
VAPPPLPNRQLPNLD    0
SHRLWLYAAPKRPKT    1
NMLKKKPLKKPLKRF    66
YYNRQELALPKRMSS    1
ISRRRLPVIMHRLKM    5
LKQRFFLMFPKSIIW    9

Fill in: SPOT intensity of SKIRPTPRKPSRMAT is ___
44

Fill in: SPOT intensity of RSRRSSFAYPQQVAI is ___
0

Fill in: SPOT intensity of RFKRHRLEFPFNESE is ___
14

Fill in: SPOT intensity of PPLPRAPPVPPATFE is ___
2

Fill in: SPOT intensity of FTLPPPPPPPGLDEL is ___
0
